- target.system: T1, hCMV gH, gL, UL128, UL130 and UL131A co-expressed in HEK293T cells (human cytomegalovirus, UniProt P12824 24-743; P16832 31-278; P16837 1-171; P16772 1-214)
- T1 construct: whole, on cells; also called gH + gL + UL128 + UL130 + UL131A; gH/gL/UL128-130 complex
- protocol.notes: cell cross-competition, 20x excess; competitor 2C12-biotin
reported.endpoint: Inhibition of binding (%)
Entry rule: numbers only, all in %.

binder	Inhibition of binding (%)
3G16 (antibody, V domains shown, human IgG mAb; also called 3G16-biotin) VH: QSALTQPASVSGSPGESITISCTGTISDVGAYNSVSWYQQHSGTAPELIIYDVTNRPAGVSSRFSGSKSGNTASLTISWLQSEDEAEYYCSSYTTSDTYVFGSGTQVTVL V domain: RAQLVQSAAEMKNPGASVKVSCEASGYTFTGYYVHWMRQAPGQGLEWMGWINPMTGATKSPQKFQGRVTMTRDTSTTATHIELTRLRSDDSAVFFCARGGPTSTRITGKRHFDLWGRGTLITVAS	0

# return recorded Inhibition of binding (%) for input 2C12 (antibody, V domains shown, human IgG mAb; also called 2C12-biotin) VH: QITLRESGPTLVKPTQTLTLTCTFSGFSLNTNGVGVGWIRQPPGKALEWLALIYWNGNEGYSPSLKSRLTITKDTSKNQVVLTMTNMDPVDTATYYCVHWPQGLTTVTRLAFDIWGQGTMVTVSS VL: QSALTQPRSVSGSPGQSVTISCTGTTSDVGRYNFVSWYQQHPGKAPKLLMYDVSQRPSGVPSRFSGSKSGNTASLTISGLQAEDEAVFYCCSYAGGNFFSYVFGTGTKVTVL 100
